# Tested on: N140
# TEST_SUMMARY: qHTS profiling for inhibitors of Plasmodium falciparum proliferation (AID 504749); also: nearly all actives have a fitted effect of over 60% in size
# MEASUREMENT_PARAMETERS: P. falciparum in erythrocytes, SYBR Green DNA, 72 h; series mostly up to 12.8 µM
Results filed as inconclusive are left out. Calls of active or inactive are those of the source. Calls follow the shape of the dose curve; as a rule, active = well fitted inhibition curve with a large enough effect; inconclusive = small, poorly fitted or top-dose-only effect; inactive = flat fitted curve, though single readings scatter.
Outcomes you can answer with include only these: true for active, false for inactive

Examples with answers:
[
  {
    "COMPOUND": "COc1ccc2cc1Oc1ccc(cc1)CC1c3c(cc4c(c3Oc3cc5c(cc3OC)CCN(C)C5C2)OCO4)CCN1C (stereo not given)",
    "ASSAY_SYSTEM": "N140",
    "ASSIGNED_CATEGORY": "true"
  },
  {
    "COMPOUND": "O=C1OC(CO)C(O)C(O)C1O (stereo not given)",
    "ASSAY_SYSTEM": "N140",
    "ASSIGNED_CATEGORY": "false"
  },
  {
    "COMPOUND": "C[C@]12CCC(=O)C=C1CCC1C2C(=O)C[C@]2(C)C1CC[C@]2(O)C(=O)CO (stereo not given in full)",
    "ASSAY_SYSTEM": "N140",
    "ASSIGNED_CATEGORY": "false"
  },
  {
    "COMPOUND": "CCCCC[C@H](O)/C=C\\[C@@H]1[C@H](O)CC(=O)[C@@H]1CCCCCCC(=O)O",
    "ASSAY_SYSTEM": "N140",
    "ASSIGNED_CATEGORY": "false"
  },
  {
    "COMPOUND": "COC(=O)C1=C(C)NC(C)=C(C(=O)OC(C)C)[C@H]1c1cccc2nonc12",
    "ASSAY_SYSTEM": "N140",
    "ASSIGNED_CATEGORY": "true"
  }
]

Asked: Could you kindly confirm the outcome this assay logged for `CN1CCN([C@@H](c2ccccc2)c2ccc(Cl)cc2)CC1` ?
Given back: false

Asked: Write down the call the test reported for this compound. Item: CC1CCC(C(C)C)C(=O)C1 (stereo not given)
Given back: false

Asked: Per the records of this test, what outcome belongs to OCC1OC([S-])[C@H](O)C(O)C1O.[Au+] (stereo not given in full) ?
Given back: false

Asked: Test call, this compound: `CCN(CCCCOC(=O)c1ccc(OC)c(OC)c1)[C@@H](C)Cc1ccc(OC)cc1`
Given back: false

Asked: // param item: `O=C(O)COCCN1CCN([C@@H](c2ccccc2)c2ccc(Cl)cc2)CC1` ; yields the recorded call
Given back: false
